assayedTarget: EBOV GP[change] (Ebola virus (EBOV), UniProt Q05320)
test: ELISA
The reader will find reported EC50 values listed item by item below.

binder	EC50 [ng/mL]
FVM09 (antibody, V domains shown) VH: EVQLVQSGAEVKRPGESLTISCKTSGYSFTDSWVAWVRQMPGKGLEWLGSIYPGDSETKYNPSFQGHVTISADKSVTTTYLKWSSLKASDTATYYCVKGSETWGQGVLVTVSS VL: QLVLTQPASLSASPGASASLTCTFSGGINVAGYNILWYQQKAGSPPRYLLRYKSDSTKDQGSGVPSRFSGSKDASANTGILRISGLQSEDEADYYCAIGHSSGWIFGGGTRLTVL	5
FVM01P (antibody, V domains shown) VH: QVQLQESGPGLVKPSETLSLTCTVSGASISNYRWNWIRQPPGKGLEWIGEINGYSGSTNYNPSLKSRVTISKDASKNQFSLKLTSVTAADTAVYYCPIIGGFTLEWFDVWGPGVLVTVSS VL: DVVLTQSPSSLSASVGDRVTITCRASQGIRNYLNWYQQKPRKAPKLLIYAASSLQSGVPSRFSGSGSGTEFTLTISSLQAEDFATYYCLQGYRTPFTFGPGTKLDIKR	9
FVM20 (antibody, V domains shown) VH: EVQLVESGAEVKRPGESLTISCKTSGYSFTGSWISWVRQMPGKGLEWLGSIYPGDSETKYNPSFQGHVTISADKSVTTTYLKWSSLKASDTATYYCVKGSETWGQGVLVTVSS VL: NFMLTQSASLSASPGASASLTCTFSGGINVAGYHIFWYQQNPGSPPRYLLRYKSDSEKDQGSGVPSRFSGSKDASANTGILRISGLQSEDEADYYCAIGHSSGWIFGGGTRLTVL	7
FVM04 (antibody, V domains shown) VH: EVQLVQSGGGLVQPGGSMRLSCEASGLSLSDYFMHWVRQAQGKGLEWIGLIQTKAFTYKTEYPAAVKGRFTISRDDSKNTLYLQMSSLKPEDTALYYCIAVTPDFYYWGQGVLVTVSS VL: DVVMTQSPSFLSASVGDRVTITCRASQDITINLNWFQHKPGKAPKRLIYVASRLERGVPSRFSGSGSGTEFTLTISSLQPEDFATYYCQQYNNYPLTFGPGTKLDIKR	12
